- Tested on: U2OS
- Assay remarks: Multiplex assay against U2OS
- Format: toxicity, cell-based
- Experimental conditions: human, 48 h, 1 µM, compound concentration 1 uM, replicate 2
Task for the reader: assign each of the following compounds its reported Population Fragmented Nuclei (%).
Give bare numbers, in %.

Worked cases, answers included:
>  <Compound>
CCn1c(-c2nc3cc(C(=O)N4CCCC(N)C4)ccc3n2C)cc2ccccc21.Cl (stereo not given)

>  <Population Fragmented Nuclei (%)>
22

$$$$
>  <Compound>
CN1C[C@H](C(=O)N[C@]2(C)O[C@@]3(O)[C@@H]4CCCN4C(=O)[C@H](Cc4ccccc4)N3C2=O)C[C@@H]2c3cccc4[nH]cc(c34)C[C@H]21.CS(=O)(=O)O [DIHYDROERGOTAMINE MESYLATE]

>  <Population Fragmented Nuclei (%)>
11

$$$$
>  <Compound>
Cc1cc(NC(=O)NCCN2CCC(O)(Cc3ccccc3)CC2)c2ccccc2n1

>  <Population Fragmented Nuclei (%)>
15

$$$$
>  <Compound>
Cl.Cl.OCCOCCN1CCN(C(c2ccccc2)c2ccc(Cl)cc2)CC1 (stereo not given) [HYDROXYZINE HYDROCHLORIDE]

>  <Population Fragmented Nuclei (%)>
14

$$$$

Ask: Population Fragmented Nuclei (%) lookup needed for CN(C)C/C=C/C(=O)Nc1ccc(C(=O)N2CCCC(Nc3ncc(Cl)c(-c4c[nH]c5ccccc45)n3)C2)cc1 (stereo not given) , thanks.
Result: 10

* * *

- Test system: Fibroblast
- Assay remarks: Multiplex assay against human fibroblast
- Type: toxicity, cell-based
- Experimental conditions: 12 h, 10 µM, compound concentration 10 uM, replicate 2
Lab note: compare Population Mitotic Cells (%) against 60%. Equal or greater, write 1. Smaller, write -1.

Observe how each entry below is paired with its result.
>  <Compound>
CCCCCCNC(=O)Nc1ccc(S(=O)(=O)Nc2ccc(CCNC[C@H](O)COc3ccc(O)cc3)cc2)cc1

>  <Target or test system>
Fibroblast

>  <Cat>
-1

$$$$
>  <Compound>
Cn1cc(C(=O)OCC2CCN(CCNS(C)(=O)=O)CC2)c2ccccc21

>  <Target or test system>
Fibroblast

>  <Cat>
1

$$$$
>  <Compound>
COCCCN1CCC(NC(=O)c2cc(Cl)c(N)c3c2OCC3)CC1 [PRUCALOPRIDE]

>  <Target or test system>
Fibroblast

>  <Cat>
1

$$$$
>  <Compound>
O=C(O)CCC/C=C\CC1C(O)CC(O)C1/C=C/C(O)COc1cccc(Cl)c1 (stereo not given)

>  <Target or test system>
Fibroblast

>  <Cat>
1

$$$$
>  <Compound>
CN1CCC(C(=O)c2cccc(NC(=O)c3c(F)cc(F)cc3F)n2)CC1

>  <Target or test system>
Fibroblast

>  <Cat>
1

$$$$

Ask: Could you verify whether the entry CC(F)(F)CN1CCOc2c(nn(-c3ccccc3Cl)c2-c2ccc(Cl)cc2)C1=O shows Population Mitotic Cells (%) of no less than 60%?
Result: 1

Ask: Next compound: COCCn1c(C)c(C)s/c1=N\C(=O)C1C(C)(C)C1(C)C
Result: 1

Ask: Next compound: CCc1nn2c(C)cc(C)nc2c1Cc1ccc(-c2nnc(C3CCNCC3)o2)cc1
Result: 1

Ask: Next compound: Cc1cc(NC(=O)NCCN2CCC(O)(Cc3ccccc3)CC2)c2ccccc2n1
Result: -1

Ask: Next compound: CN1C[C@H](C(=O)N[C@]2(C)O[C@@]3(O)[C@@H]4CCCN4C(=O)[C@H](Cc4ccccc4)N3C2=O)C[C@@H]2c3cccc4[nH]cc(c34)C[C@H]21.CS(=O)(=O)O [DIHYDROERGOTAMINE MESYLATE]
Result: 1

Ask: Next compound: COc1cc(OC2CCN(C(C)=O)CC2)ccc1C(=O)N1CCC(N2C(=O)OCc3ccccc32)CC1
Result: 1

Ask: Next compound: O=C(Nc1cc(-c2ccccc2)nn1-c1ccccc1F)c1ccc([N+](=O)[O-])cc1
Result: -1

Ask: Next compound: COC(c1ccccc1)(c1ccccc1)[C@H](Oc1nc(C)cc(C)n1)C(=O)O
Result: 1

* * *

- Tested on: HEK-293T
- Assay remarks: Multiplex assay against HEK293T
- Assay type: toxicity, cell-based
- Experimental conditions: human, 24 h, 1 µM, compound concentration 1 uM, replicate 1
Endpoint: Population Healthy Nuclei (%)
Numbers only, in %.

Worked cases, answers included:
>  <Compound>
C[C@H](NC(=O)CNC(=O)c1cccc(Cl)c1)c1ccccc1

>  <Target or test system>
HEK-293T

>  <Endpoint>
Population Healthy Nuclei (%)

>  <Obs value>
80

$$$$
>  <Compound>
COCCCN1CCC(NC(=O)c2cc(Cl)c(N)c3c2OCC3)CC1 [PRUCALOPRIDE]

>  <Target or test system>
HEK-293T

>  <Endpoint>
Population Healthy Nuclei (%)

>  <Obs value>
78

$$$$
>  <Compound>
CCn1c(-c2nc3cc(C(=O)N4CCCC(N)C4)ccc3n2C)cc2ccccc21.Cl (stereo not given)

>  <Target or test system>
HEK-293T

>  <Endpoint>
Population Healthy Nuclei (%)

>  <Obs value>
80

$$$$
>  <Compound>
COc1cc(OC2CCN(C(C)=O)CC2)ccc1C(=O)N1CCC(N2C(=O)OCc3ccccc32)CC1

>  <Target or test system>
HEK-293T

>  <Endpoint>
Population Healthy Nuclei (%)

>  <Obs value>
78

$$$$

Now look at this entry.
Ask: Population Healthy Nuclei (%) lookup needed for CCC(=O)OCC(=O)[C@@]1(OC(=O)CC)[C@@H](C)C[C@H]2[C@@H]3CCC4=CC(=O)C=C[C@]4(C)[C@@]3(Cl)[C@@H](O)C[C@@]21C [BECLOMETHASONE DIPROPIONATE] , thanks.
Result: 81

* * *

Task for the reader: assign each of the following molecules its reported Total Cell Count.
- Tested on: U2OS
- Assay remarks: Multiplex assay against U2OS
- Assay type: toxicity, cell-based
- Experimental conditions: human, 48 h, 10 µM, compound concentration 10 uM, replicate 1
Numbers only.

Provide the reported Total Cell Count of each entry below, same order.
1. COc1cc(OC2CCN(C(C)=O)CC2)ccc1C(=O)N1CCC(N2C(=O)OCc3ccccc32)CC1
2. CCn1c(-c2nc3cc(C(=O)N4CCCC(N)C4)ccc3n2C)cc2ccccc21.Cl (configuration not stated)

Result:
1: 320; 2: 353

* * *

- System: U2OS
- Assay remarks: Multiplex assay against U2OS
- Type: toxicity, cell-based
- Experimental conditions: human, 24 h, 10 µM, compound concentration 10 uM, replicate 2
Endpoint: Population Pyknosed Nuclei (%)
Numbers only, in %.

>  <Compound>
COc1cc2nc(N3CCN(C(=O)c4ccco4)CC3)nc(N)c2cc1OC.Cl [PRAZOSIN HYDROCHLORIDE]

>  <Quantity unit>
%

>  <Obs value>
15

$$$$
>  <Compound>
COc1cc(Nc2ncc3c(n2)-c2ccc(Cl)cc2C(c2c(F)cccc2OC)=NC3)ccc1C(=O)O [ALISERTIB]

>  <Quantity unit>
%

>  <Obs value>
9

$$$$
>  <Compound>
O=C(NCCNCC(O)COc1ccc(O)cc1)N1CCOCC1.O=C(NCCNCC(O)COc1ccc(O)cc1)N1CCOCC1.O=C(O)/C=C/C(=O)O (configuration not stated) [XAMOTEROL FUMARATE]

>  <Quantity unit>
%

>  <Obs value>
12

$$$$
>  <Compound>
CC(C)(C)c1ccc(CSc2cnn(C(C)(C)C)c(=O)c2Cl)cc1 [PYRIDABEN]

>  <Quantity unit>
%

>  <Obs value>
12

$$$$
>  <Compound>
Cc1nn(C)c2nc(NNC(=O)Nc3cc(Cl)nc(Cl)c3)cc(C(C)C)c12

>  <Quantity unit>
%

>  <Obs value>
21

$$$$

Provide the reported Population Pyknosed Nuclei (%) of each entry below, same order.
1. COc1cc2nc(N3CCN(C(=O)COc4c(OC)cccc4C(C)C)CC3)nc(N)c2cc1OC.Cl.Cl
2. CCCCC[C@H](O)/C=C/[C@H]1[C@H](O)CC(=O)[C@@H]1CCCCCCC(=O)O [ALPROSTADIL]

Result:
1: 39; 2: 10

* * *

- Test system: HEK-293T
- Assay remarks: Multiplex assay against HEK293T
- Format: toxicity, cell-based
- Experimental conditions: human, 12 h, 1 µM, compound concentration 1 uM, replicate 2
Endpoint: Population Pyknosed Nuclei (%)
Numbers only, in %.

Provide the reported Population Pyknosed Nuclei (%) of each entry below, same order.
1. C[C@H](NC(=O)CNC(=O)c1cccc(Cl)c1)c1ccccc1
2. COc1cc2nc(N3CCN(C(=O)c4ccco4)CC3)nc(N)c2cc1OC.Cl [PRAZOSIN HYDROCHLORIDE]
3. OCCCNc1cc(-c2ccnc(Nc3cccc(Cl)c3)n2)ccn1
4. N[C@](CC1c2ccccc2Oc2ccccc21)(C(=O)O)[C@H]1C[C@@H]1C(=O)O
5. Cc1sc2c(c1C)C(c1ccc(Cl)cc1)=N[C@H](CC(=O)OC(C)(C)C)c1nnc(C)n1-2
6. Cc1c(Cc2ccc3ccccc3n2)c2cc(F)ccc2n1CC(=O)O
7. COC(c1ccccc1)(c1ccccc1)[C@H](Oc1nc(C)cc(C)n1)C(=O)O

Result:
1. 9
2. 16
3. 16
4. 12
5. 17
6. 12
7. 10
